System: MOLT-4 cells
Assay: MOLT-4 cell viability using MTT assay
Assay type: cell-based
Details: Homo sapiens, MOLT-4, 48 h, 48 h exposure
OBSERVATION_TYPE: pIC50
Lab note: report pIC50 as minus log10 of the concentration in molar units, number only.

Incoming: # query: pIC50 of entry `Cc1c(Nc2nc3ccccc3s2)nnc2c1CCCN2c1nc(C(=O)O)c(CCCOc2ccc(C#CCN3CCOCC3)cc2F)s1`
Outgoing: 9.02

Incoming: Also, `Cc1c(Nc2nc3ccccc3s2)nnc2c1CCCN2c1nc(C(=O)O)c(CCCOc2ccc(C#CC(C)(C)N(C)C)cc2F)s1` please.
Outgoing: 9.24

Incoming: Same question, `Cc1c(Nc2nc3ccccc3s2)nnc2c1CCCN2c1ccc(-c2cnn(CC34CC5(C)CC(C)(C3)CC(OCCN(C)CCO)(C5)C4)c2C)c(C(=O)O)n1` this time
Outgoing: 9.66

Incoming: Request: `COCCCN(C)CCOC12CC3(C)CC(C)(CC(Cn4ncc(-c5ccc(N6CCCc7c6nnc(Nc6nc8ccccc8s6)c7C)nc5C(=O)O)c4C)(C3)C1)C2`
Outgoing: 10.08

Incoming: Would you kindly repeat that for `Cc1c(Nc2nc3ccccc3s2)nnc2c1CCCN2c1nc(C(=O)O)cs1` ?
Outgoing: 5.98

Incoming: Moving on to Cc1c(Nc2nc3ccccc3s2)nnc2c1CCCN2c1nc(C(=O)O)c(CCCOc2ccc(C#CC(C)N3CCCC3)cc2F)s1 (stereo not shown)
Outgoing: 8.77

Incoming: Same question for `Cc1c(Nc2nc3ccccc3s2)nnc2c1CCCN2c1ccc(-c2cnn(CC34CC5(C)CC(C)(C3)CC(OCCN3CCCCCC3)(C5)C4)c2C)c(C(=O)O)n1` please.
Outgoing: 9.58

Incoming: Consider next the compound `O=C(O)c1csc(N2CCc3c2nnc(Nc2nc4ccccc4s2)c3C2CC2)n1` in the same way.
Outgoing: 6.06

Incoming: Subsequent entry: `Cc1c(Nc2nc3ccccc3s2)nnc2c1CCCN2c1nc(C(=O)O)c(CCCOc2ccc(C#CCN3CCC3)cc2F)s1`
Outgoing: 9.26

Incoming: Follow-up entry: `Cc1c(Nc2nc3ccccc3s2)nnc2c1CCCN2c1ccc(-c2cnn(CC34CC5(C)CC(C)(C3)CC(OCCNCCCCO)(C5)C4)c2C)c(C(=O)O)n1`
Outgoing: 8.88

Incoming: Follow-up entry: `Cc1c(Nc2nc3ccccc3s2)nnc2c1CCCN2c1nc(C(=O)O)c(CCCOc2ccc(C#CCNCC[C@@H](O)CO)cc2F)s1`
Outgoing: 9.56

Incoming: Input `Cc1c(Nc2nc3ccccc3s2)nnc2c1CCCN2c1ccc(-c2cnn(CC34CC5(C)CC(C)(C3)CC(OCCN3CCNCC3)(C5)C4)c2C)c(C(=O)O)n1`
Outgoing: 7.88

Incoming: Follow-up item: `Cc1c(Nc2nc3ccccc3s2)nnc2c1CCCN2c1ccc(-c2cnn(CC34CC5(C)CC(C)(C3)CC(OCCN3CCCCC3)(C5)C4)c2C)c(C(=O)O)n1`
Outgoing: 10.26
